Assay: NCI Yeast Anticancer Drug Screen. Data for the rad50 strain (AID 155);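 also: 0% = growth of vehicle-only cultures of the same strain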
Details: S. cerevisiae rad50 strain growth inhibition; at 50.0 µM
About 79,000 compounds went through this panel and 15% of them were active in at least one assay; those are over-represented in the sample as a whole. Active and inactive are the calls of the source. Rule as the data show it: active = growth inhibition above about 70%; inactive = the rest.
Labels: active, inactive

[
  {
    "compound": "Cc1ccc(S(=O)(=O)NNC(=O)c2ccc[nH]2)cc1",
    "classification": "inactive"
  },
  {
    "compound": "COc1cc(C)cc2c1C(=O)C(Br)=CC2=O",
    "classification": "active"
  },
  {
    "compound": "Cc1ccccc1N1C(N)=C(C#N)C(C#N)(C#N)C1c1ccccc1 (stereo unspecified)",
    "classification": "inactive"
  },
  {
    "compound": "COc1cccc(/C(C#N)=N/NC(=O)c2nc[nH]c2C)c1",
    "classification": "inactive"
  },
  {
    "compound": "Nc1ncnc2c1ncn2CCCCC(=O)O",
    "classification": "inactive"
  },
  {
    "compound": "O=C1OC(c2cccc(Cl)c2)=N/C1=C\\c1ccc(O)cc1",
    "classification": "inactive"
  }
]

* * *

Assay: NCI Yeast Anticancer Drug Screen. Data for the rad50 strain (AID 155);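 also: 0% = growth of vehicle-only cultures of the same strain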
Details: S. cerevisiae rad50 strain growth inhibition; at 50.0 µM; active compounds read high
This is part of a sample that, as a whole, favours compounds with a hit. Of some 79,000 tested, about 15% had one in any assay.
Listing of entries alongside the reported growth inhibition.

[
  {
    "compound": "O=C(O)c1ccccc1-c1ccccc1C(=O)O",
    "growth inhibition / %": -3.95
  },
  {
    "compound": "CS(=O)(=O)C(C#N)c1nc2ccccc2nc1Cl (configuration not stated)",
    "growth inhibition / %": -20.6
  },
  {
    "compound": "COCCN1CCC(CO)C1 (configuration not stated)",
    "growth inhibition / %": 4.85
  },
  {
    "compound": "COC(=O)c1cc2cccn2cn1",
    "growth inhibition / %": -5.9
  },
  {
    "compound": "O=C(O)c1cc2cc(S(=O)(=O)O)ccc2cc1O",
    "growth inhibition / %": 4
  },
  {
    "compound": "C/[N+]([O-])=N/COC1OC(COC2OCC(O)C(O)C2O)C(O)C(O)C1O (configuration not stated)",
    "growth inhibition / %": 7.5
  },
  {
    "compound": "Nc1cccc(Nc2nc3ccccc3nc2NS(=O)(=O)c2ccccc2)c1",
    "growth inhibition / %": 18.5
  }
]

* * *

Experiment: NCI Yeast Anticancer Drug Screen. Data for the rad50 strain (AID 155);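 also: 0% = growth of vehicle-only cultures of the same strain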
Conditions: S. cerevisiae rad50 strain growth inhibition; at 50.0 µM; active compounds read high
This is part of a sample that, as a whole, favours compounds with a hit. Of some 79,000 tested, about 15% had one in any assay.

[
  {
    "molecule": "CCNC(=O)COc1ccc(Br)cc1Br",
    "growth inhibition (%)": -3.7
  },
  {
    "molecule": "CCCCCCCCCCCCCCCCCCCOc1ccc(OCCCCCCCCCC)cc1",
    "growth inhibition (%)": 33.9
  },
  {
    "molecule": "CC1=NS(=O)(=O)c2ccccc2N1",
    "growth inhibition (%)": 0.3
  },
  {
    "molecule": "O=C1Nc2cccc3cc(NCC(O)CCCl)cc1c23 (stereo unspecified)",
    "growth inhibition (%)": 17.4
  },
  {
    "molecule": "O=C(NC(=O)c1ccc(Cl)c(Cl)c1)Nc1ccc(Cl)cc1",
    "growth inhibition (%)": -1.45
  },
  {
    "molecule": "COc1ccc(N=Nc2c(C)nn(C(=O)c3ccncc3)c2C)cc1",
    "growth inhibition (%)": -21.9
  }
]
